Where these numbers come from: PubChem BioAssay (EPA / NIEHS)

assay-text: BSK_CASM3C_SRB: Viability Assessment in the BioMAP Diversity Plus: CASM3C Assay (AID 2283050);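 also: total protein by SRB staining as cytotoxicity measure in parallel cultures; cells exposed to compound for 24 h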
conditions: primary human coronary artery smooth muscle cells
Calls of active or inactive are those of the source. The calls were made as follows: active = hit-call score of the fitted dose curve at least 0.9, where 1 is the maximum; inactive = score below 0.9.
Return exactly one item of 1 = active, 0 = inactive

For orientation, consider the following solved cases.
>  <molecule-smiles>
O=C1OC2(c3ccccc31)c1ccc(O)c(Br)c1Oc1c2ccc(O)c1Br

>  <class-assignment>
0

$$$$
>  <molecule-smiles>
CCCCCCCCCCCCCCCC(=O)OC/C=C(C)/C=C/C=C(C)/C=C/C1=C(C)CCCC1(C)C

>  <class-assignment>
0

$$$$
>  <molecule-smiles>
O=C1OC[C@H](Cc2cccc(O)c2)[C@H]1Cc1cccc(O)c1

>  <class-assignment>
0

$$$$
>  <molecule-smiles>
CSCCC=O

>  <class-assignment>
0

$$$$
>  <molecule-smiles>
CCCCN(CCCC)C(=O)N(CCCC)CCCC

>  <class-assignment>
1

$$$$

Next:
## Task Write down the call the test reported for this molecule. Item: C=C(C)C(=O)OCCOCCOCCOCCOC(=O)C(=C)C
## Result 0

---

Read-out: Interleukin 17A (IL17A), IL17A (gene 3605)
assay-text: BSK_BT_xIL17A: BioMAP Diversity Plus: BT Assay for Interleukin 17A (IL17A) Biomarker Activity (AID 2284229)
conditions: primary human B cells with PBMC
Calls of active or inactive are those of the source. The calls were made as follows: active = hit-call score of the fitted dose curve at least 0.9, where 1 is the maximum; inactive = score below 0.9.
outcome-measure: AC50

Past entries and their recorded results:
>  <compound>
COc1ccc(CCN2CCC(Nc3nc4ccccc4n3Cc3ccc(F)cc3)CC2)cc1

>  <recorded-measurement>
3.17 µM (active)

$$$$
>  <compound>
O=C1OC2(c3ccccc31)c1ccc(O)c(Br)c1Oc1c2ccc(O)c1Br

>  <recorded-measurement>
inactive

$$$$
>  <compound>
C[C@@H]1CCN(C(=O)[C@H](CCCN=C(N)N)NS(=O)(=O)c2cccc3c2NC[C@H](C)C3)[C@@H](C(=O)O)C1

>  <recorded-measurement>
inactive

$$$$
>  <compound>
c1ccc(Oc2ccccc2)cc1

>  <recorded-measurement>
inactive

$$$$
>  <compound>
CSCCC=O

>  <recorded-measurement>
inactive

$$$$
>  <compound>
CCCCCC(C=O)=Cc1ccccc1

>  <recorded-measurement>
inactive

$$$$
>  <compound>
O=C1c2ccccc2C(=O)c2c(O)ccc(O)c21

>  <recorded-measurement>
inactive

$$$$
>  <compound>
CN(c1nccc(=O)[nH]1)C1CCN(c2nc3ccccc3n2Cc2ccc(F)cc2)CC1

>  <recorded-measurement>
inactive

$$$$
>  <compound>
CC(C=O)Cc1ccc(C(C)(C)C)cc1 (centres undefined)

>  <recorded-measurement>
inactive

$$$$
>  <compound>
COc1cc(Cl)c(OC)cc1N

>  <recorded-measurement>
inactive

$$$$

## Task Given the compound c1ccc2cc(Nc3ccc(Nc4ccc5ccccc5c4)cc3)ccc2c1 , what is its reported AC50?
## Result inactive

## Task Next compound up: CCCCOC(=O)CCCCCCCC(=O)OCCCC
## Result inactive

## Task Next compound up: CC(=O)c1c(C)c([N+](=O)[O-])c(C(C)(C)C)c([N+](=O)[O-])c1C
## Result inactive

---

assay-text: CEETOX_H295R_OHPROG: CeeTox H295R High-throughput Steroidogenesis Assay for OH-Progesterone (OHPROG) (AID 2283435)
conditions: actives raise or lower the signal
The source made the active and inactive calls. Rule for the calls: active = hit-call score of the fitted dose curve at least 0.9, where 1 is the maximum; inactive = score below 0.9.
Return exactly one item of active, inactive

For orientation, consider the following solved cases.
>  <compound>
OCc1cccc(Oc2ccccc2)c1

>  <class-assignment>
active

$$$$
>  <compound>
Nc1ccc(N)c2c1C(=O)c1ccccc1C2=O

>  <class-assignment>
active

$$$$
>  <compound>
BrCc1cccc(Oc2ccccc2)c1

>  <class-assignment>
active

$$$$
>  <compound>
CCCCCCCCN1CCCC1=O

>  <class-assignment>
inactive

$$$$
>  <compound>
CC(CN=Cc1ccccc1O)N=Cc1ccccc1O (configuration not stated)

>  <class-assignment>
active

$$$$
>  <compound>
C=C1CC[C@H](O)C/C1=C/C=C1\CCC[C@]2(C)[C@@H]([C@H](C)/C=C/[C@H](C)C(C)C)CC[C@@H]12

>  <class-assignment>
active

$$$$
>  <compound>
CC(C)Nc1nc(N)nc(Cl)n1

>  <class-assignment>
inactive

$$$$
>  <compound>
COc1ccc(N=Nc2cc(C)c(N=Nc3ccc(S(=O)(=O)O)cc3)cc2OC)cc1

>  <class-assignment>
active

$$$$

Next:
## Task Write down the call the test reported for this compound. Item: CCOC(=O)[C@@H](C)Oc1ccc(Oc2nc3ccc(Cl)cc3o2)cc1
## Result active

---

assay-text: ATG_AP_1_CIS: Attagene CIS-FACTORIAL HepG2 Assay for human Activator Protein 1 (AP-1) (AID 2282931)
conditions: HepG2 Attagene cis-factorial AP-1 reporter mRNA; actives raise or lower the signal
Active and inactive are the calls of the source. Rule for the calls: active = hit-call score of the fitted dose curve at least 0.9, where 1 is the maximum; inactive = score below 0.9.
outcome-measure: AC50

>  <molecule>
CCCCCCCCN1CCCC1=O

>  <outcome-measure>
AC50

>  <recorded-measurement>
inactive

$$$$
>  <molecule>
CS(C)=O

>  <outcome-measure>
AC50

>  <recorded-measurement>
inactive

$$$$
>  <molecule>
O=C(c1ccccc1)C(O)c1ccccc1 (stereo not given)

>  <outcome-measure>
AC50

>  <recorded-measurement>
inactive

$$$$
>  <molecule>
C1CCCCC1

>  <outcome-measure>
AC50

>  <recorded-measurement>
inactive

$$$$
>  <molecule>
Cc1ncc[nH]1

>  <outcome-measure>
AC50

>  <recorded-measurement>
inactive

$$$$
>  <molecule>
CC(=O)NCCO

>  <outcome-measure>
AC50

>  <recorded-measurement>
inactive

$$$$

## Task Given the molecule CC(C)CCCCCCCCCCCCCCC(=O)O , what is its reported AC50?
## Result inactive

## Task Next molecule up: CCOCCOCCOCC
## Result inactive

## Task Next molecule up: CCOC(=O)COC(=O)c1cc(Oc2ccc(C(F)(F)F)cc2Cl)ccc1[N+](=O)[O-]
## Result inactive

## Task Next molecule up: C=C(C)C(=O)OCCOCCOCCOC(=O)C(=C)C
## Result inactive

## Task Next molecule up: Cc1cc(S(=O)(=O)O)ccc1N=Nc1c(O)ccc2ccccc12
## Result inactive

## Task Next molecule up: COS(=O)(=O)O
## Result inactive

## Task Next molecule up: CCCCCCCCCCCC(=O)OC[C@@H](O)[C@H]1OC[C@H](O)[C@H]1O
## Result inactive

## Task Next molecule up: C=C[Si]1(C)O[Si](C)(C=C)O[Si](C)(C=C)O[Si](C)(C=C)O1 (stereo not given)
## Result 36.1 µM (active)

## Task Next molecule up: CSCCC=O
## Result inactive

---

assay-text: ATG_TAL_CIS: Attagene CIS-FACTORIAL HepG2 Assay for human TAL Basal Promoter (AID 2282966);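 also: background control endpoint measuring basal TAL promoter reporter mRNA not a specific factor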
conditions: HepG2 Attagene cis-factorial TAL promoter reporter; actives raise or lower the signal
Activity calls are given as the source filed them. Rule for the calls: active = hit-call score of the fitted dose curve at least 0.9, where 1 is the maximum; inactive = score below 0.9.
Return exactly one item of class 1 = active, class 0 = inactive

>  <compound>
O=C(O)c1cccnc1C(=O)O

>  <class-assignment>
class 0

$$$$

## Task Write down the call the test reported for this compound. Item: O=[N+]([O-])c1ccc(O)cc1C(F)(F)F
## Result class 1

## Task Next compound up: OCCOCCN1CCN(C2=Nc3ccccc3Sc3ccccc32)CC1
## Result class 0

## Task Next compound up: CCC(C)=O
## Result class 0

## Task Next compound up: COc1cc([C@@H]2c3cc4c(cc3[C@@H](O[C@@H]3O[C@@H]5CO[C@@H](C)O[C@H]5[C@H](O)[C@H]3O)[C@H]3COC(=O)[C@H]23)OCO4)cc(OC)c1O
## Result class 0

## Task Next compound up: Nc1ccc(NCCO)c([N+](=O)[O-])c1
## Result class 0

---

tested-system: human Vascular Endothelial Growth Factor Receptor 1 (VEGFR1), FLT1 (gene 2321) (UniProt P17948)
Sequence (P17948 whole entry, looked up): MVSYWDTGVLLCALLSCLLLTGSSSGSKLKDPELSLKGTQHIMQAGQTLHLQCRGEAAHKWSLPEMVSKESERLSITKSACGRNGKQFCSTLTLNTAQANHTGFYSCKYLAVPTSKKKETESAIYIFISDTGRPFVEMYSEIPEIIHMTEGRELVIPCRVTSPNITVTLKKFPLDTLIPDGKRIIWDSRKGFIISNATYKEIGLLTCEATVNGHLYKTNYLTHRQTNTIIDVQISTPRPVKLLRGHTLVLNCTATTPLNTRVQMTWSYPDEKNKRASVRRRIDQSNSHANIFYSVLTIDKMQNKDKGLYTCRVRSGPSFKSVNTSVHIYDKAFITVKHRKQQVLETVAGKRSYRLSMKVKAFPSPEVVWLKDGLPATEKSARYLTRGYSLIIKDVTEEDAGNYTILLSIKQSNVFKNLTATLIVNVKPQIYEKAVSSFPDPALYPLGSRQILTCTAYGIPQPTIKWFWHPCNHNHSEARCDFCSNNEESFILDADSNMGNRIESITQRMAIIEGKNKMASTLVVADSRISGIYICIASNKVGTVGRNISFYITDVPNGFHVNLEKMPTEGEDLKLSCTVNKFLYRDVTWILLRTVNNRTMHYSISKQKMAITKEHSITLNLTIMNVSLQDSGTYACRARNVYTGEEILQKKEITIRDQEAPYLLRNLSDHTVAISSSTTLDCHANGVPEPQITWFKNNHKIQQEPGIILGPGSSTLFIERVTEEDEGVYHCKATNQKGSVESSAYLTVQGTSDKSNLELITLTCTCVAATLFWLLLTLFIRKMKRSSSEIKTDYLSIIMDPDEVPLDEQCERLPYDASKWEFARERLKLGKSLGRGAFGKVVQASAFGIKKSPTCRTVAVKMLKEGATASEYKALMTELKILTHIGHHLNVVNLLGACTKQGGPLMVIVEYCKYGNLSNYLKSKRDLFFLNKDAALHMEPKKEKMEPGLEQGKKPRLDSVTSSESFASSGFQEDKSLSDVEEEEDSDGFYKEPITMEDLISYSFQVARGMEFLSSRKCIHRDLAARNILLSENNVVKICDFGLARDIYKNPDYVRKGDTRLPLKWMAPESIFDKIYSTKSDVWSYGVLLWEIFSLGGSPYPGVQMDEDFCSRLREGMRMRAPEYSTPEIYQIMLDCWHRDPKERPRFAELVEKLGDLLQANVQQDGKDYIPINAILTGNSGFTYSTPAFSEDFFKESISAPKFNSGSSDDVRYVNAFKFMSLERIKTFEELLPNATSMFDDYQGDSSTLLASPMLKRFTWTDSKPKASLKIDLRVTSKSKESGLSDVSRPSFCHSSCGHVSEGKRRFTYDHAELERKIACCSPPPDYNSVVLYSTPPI
assay-text: NVS_ENZ_hVEGFR1: NovaScreen (NVS) Enzymatic Assay for human Vascular Endothelial Growth Factor Receptor 1 (VEGFR1) (AID 2283226)
Records with an inconclusive call do not appear. The source made the active and inactive calls. Rule for the calls: active = hit-call score of the fitted dose curve at least 0.9, where 1 is the maximum; inconclusive = response in the unintended direction; inactive = score below 0.9.
Return exactly one item of active, inactive

>  <molecule-smiles>
[O-]n1ccccc1=S.[O-]n1ccccc1=S.[Zn+2]

>  <class-assignment>
inactive

$$$$
>  <molecule-smiles>
COCCOC(=O)c1ccccc1C(=O)OCCOC

>  <class-assignment>
inactive

$$$$
>  <molecule-smiles>
CN(C)C(=S)SC(=S)N(C)C

>  <class-assignment>
inactive

$$$$

Next:
## Task Write down the call the test reported for this compound. Item: CC(=O)Nc1ccc(C(=O)CCl)cc1
## Result active

---

assay-text: ATG_RORE_CIS: Attagene CIS-FACTORIAL HepG2 Assay for human RAR-related Orphan Receptor Element (RORE) (AID 2282959)
conditions: HepG2 Attagene cis-factorial RORE reporter, mRNA; actives raise or lower the signal
The source made the active and inactive calls. How the source made its calls: active means hit-call score of the fitted dose curve at least 0.9, where 1 is the maximum; inactive means score below 0.9.
outcome-measure: AC50

Past entries and their recorded results:
>  <compound>
C=C[Si]1(C)O[Si](C)(C=C)O[Si](C)(C=C)O[Si](C)(C=C)O1 (centres undefined)

>  <recorded-measurement>
inactive

$$$$
>  <compound>
CCOC(=O)COC(=O)c1cc(Oc2ccc(C(F)(F)F)cc2Cl)ccc1[N+](=O)[O-]

>  <recorded-measurement>
34.3 µM (active)

$$$$
>  <compound>
CCOC(=O)CN

>  <recorded-measurement>
inactive

$$$$
>  <compound>
C[Si]1(C)O[Si](C)(C)O[Si](C)(C)O1

>  <recorded-measurement>
inactive

$$$$

## Task Given the compound CC1(C)C(=O)N(Cl)C(=O)N1Br , what is its reported AC50?
## Result inactive

## Task Next compound up: CCOC(=O)CC(C)O (centres undefined)
## Result inactive

## Task Next compound up: C=CC(=C)CCCC(C)(C)OC(C)=O
## Result inactive
